biological target: furin, P09958; test: furin cleavage Z-score vs untreated control; higher = more cleavage, active = 3.5 or more, inactive = 1 or less, 8 variable residues between constant flanks; settings: 7.5 min;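 also: purified furin at 1:10 enzyme:substrate in 50 mM HEPES pH 7.5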
Sequence (P09958 whole entry): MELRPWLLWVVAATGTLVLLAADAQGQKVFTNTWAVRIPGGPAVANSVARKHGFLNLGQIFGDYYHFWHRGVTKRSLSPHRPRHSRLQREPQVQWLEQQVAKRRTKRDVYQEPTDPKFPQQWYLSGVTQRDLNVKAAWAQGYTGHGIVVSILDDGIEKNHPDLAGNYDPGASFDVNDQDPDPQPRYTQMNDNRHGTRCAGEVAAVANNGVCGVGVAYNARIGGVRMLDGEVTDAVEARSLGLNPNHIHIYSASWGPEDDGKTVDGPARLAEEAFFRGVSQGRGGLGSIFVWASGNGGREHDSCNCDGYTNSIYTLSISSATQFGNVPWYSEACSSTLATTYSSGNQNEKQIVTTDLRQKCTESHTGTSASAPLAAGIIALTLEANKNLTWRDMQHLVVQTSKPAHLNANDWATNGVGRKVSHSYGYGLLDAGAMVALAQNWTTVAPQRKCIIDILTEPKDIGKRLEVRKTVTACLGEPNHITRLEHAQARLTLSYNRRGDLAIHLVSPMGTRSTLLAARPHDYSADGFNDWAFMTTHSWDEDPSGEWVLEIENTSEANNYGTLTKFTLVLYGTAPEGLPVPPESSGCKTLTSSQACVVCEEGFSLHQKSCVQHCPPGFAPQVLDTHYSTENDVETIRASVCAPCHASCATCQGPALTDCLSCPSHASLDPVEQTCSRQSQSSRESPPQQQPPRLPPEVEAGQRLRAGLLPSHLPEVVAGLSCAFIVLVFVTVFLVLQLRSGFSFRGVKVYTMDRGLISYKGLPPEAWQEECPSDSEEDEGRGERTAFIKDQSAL
The other results are listed elsewhere or left out. The true hit rate is not given.
# if value of furin cleavage Z-score reaches 0.2, tag Y; if it stays below, tag N

As a guide, the following entries are already answered.
orderedResidues	classification
CANLLSVEEAAGNASASA [HC1411]	Y
CAKPGIYRFVAGNASASA [HC908]	Y
CATRSVRKRSAGNASASA [FS-100]	Y
CARARRPHFDAGNASASA [FS-1848]	N
CAFQVAHLHAAGNASASA [HC772]	N
CAPKRRKPRVAGNASASA [FS-1242]	Y
CASWPCSAHLAGNASASA [HC2488]	Y
CAEVECHRPSAGNASASA [HC2352]	Y
CAQMYTNVDQAGNASASA [HC710]	Y
CAKMQRAPRDAGNASASA [FS-451]	N

In: Say whether CARARRFCRDAGNASASA [FS-2547] shows furin cleavage Z-score of 0.2 or more.
Out: Y

In: How about CAEFTTPCSGAGNASASA [HC1967] ?
Out: N

In: How about CAEREVPCHRAGNASASA [HC2432] ?
Out: Y

In: How about CAAWDMMMNWAGNASASA [HC320] ?
Out: Y

In: How about CANDARRTRSAGNASASA [FS-693] ?
Out: Y

In: How about CARRKRAKVEAGNASASA [FS-3051] ?
Out: Y

In: How about CAPCRRKPRDAGNASASA [FS-838] ?
Out: Y

In: How about CAMSGEVPSTAGNASASA [HC1095] ?
Out: N

Where these numbers come from: the supplement of paper PMC3545927
